Parameter MIC: see the listing below.
System: MRSA ATCC 700787 VRSA
protocol description: MIC, broth microdilution
Format: cell-based, Staphylococcus aureus
applied conditions: MRSA ATCC 700787 VRSA
Answer with a number only, understood to be in µg/mL.

Solved cases below.
INSERT INTO assay_data (chemical_string, readout_value) VALUES
  ('CN(C)[C@H]1C(=O)N[C@@H]2Cc3ccc(c(Cl)c3)Oc3cc4cc(c3O)Oc3ccc(cc3Cl)[C@@H](O[C@@H]3O[C@H](CO)[C@@H](O)[C@H](O)[C@H]3NC(=O)CCCCCCCN)[C@@H]3NC(=O)[C@H](NC(=O)[C@@H]4NC(=O)[C@@H](NC2=O)c2cc(O)cc(c2)Oc2cc1ccc2O)c1ccc(O)c(c1)-c1c(O)cc(O)cc1[C@@H](C(=O)O)NC3=O', 0.063),
  ('CN(C)[C@H]1C(=O)N[C@@H]2Cc3ccc(c(Cl)c3)Oc3cc4cc(c3O)Oc3ccc(cc3Cl)[C@@H](O[C@@H]3O[C@H](CO)[C@@H](O)[C@H](O)[C@H]3NC(=O)CCCCCCCO)[C@@H]3NC(=O)[C@H](NC(=O)[C@@H]4NC(=O)[C@@H](NC2=O)c2cc(O)cc(c2)Oc2cc1ccc2O)c1ccc(O)c(c1)-c1c(O)cc(O)cc1[C@@H](C(=O)O)NC3=O', 0.125);

stdin: Requested field: MIC. Item: N[C@H]1C(=O)N[C@@H]2Cc3ccc(c(Cl)c3)Oc3cc4cc(c3O)Oc3ccc(cc3Cl)[C@@H](O[C@@H]3O[C@H](CO)[C@@H](O)[C@H](O)[C@H]3NC(=O)CCc3ccccc3)[C@@H]3NC(=O)[C@H](NC(=O)[C@@H]4NC(=O)[C@@H](NC2=O)c2cc(O)cc(c2)Oc2cc1ccc2O)c1ccc(O)c(c1)-c1c(O)cc(O)cc1[C@@H](C(=O)O)NC3=O
stdout: 0.031

====

System: VRE ATCC 700221 (vanA)
protocol description: MIC, broth microdilution
Assay type: cell-based, enterococci
applied conditions: VRE ATCC 700221 (vanA)
Listed here are compounds together with their documented MIC.

stdin: Item under review: CN(C)[C@H]1C(=O)N[C@@H]2Cc3ccc(c(Cl)c3)Oc3cc4cc(c3O)Oc3ccc(cc3Cl)[C@@H](O[C@@H]3O[C@H](CO)[C@@H](O)[C@H](O)[C@H]3NC(=O)CCCCCCC[N+](C)(C)C)[C@@H]3NC(=O)[C@H](NC(=O)[C@@H]4NC(=O)[C@@H](NC2=O)c2cc(O)cc(c2)Oc2cc1ccc2O)c1ccc(O)c(c1)-c1c(O)cc(O)cc1[C@@H](C(=O)O)NC3=O . Reported MIC?
stdout: >16 µg/mL

stdin: Fill in: MIC of CCCCCCCC(=O)NC1C(OC2c3ccc(c(Cl)c3)Oc3cc4cc(c3O)Oc3ccc(cc3Cl)CC3NC(=O)C(N)c5ccc(O)c(c5)Oc5cc(O)cc(c5)C(NC3=O)C(=O)NC4C(=O)NC3C(=O)NC2C(=O)NC(C(=O)O)c2cc(O)cc(OC4OC(CO)C(O)C(O)C4O)c2-c2cc3ccc2O)OC(CO)C(O)C1O (stereo not drawn) is ___
stdout: >16 µg/mL

stdin: If you can, please state the reported MIC value of N[C@H]1C(=O)N[C@@H]2Cc3ccc(c(Cl)c3)Oc3cc4cc(c3O)Oc3ccc(cc3Cl)[C@@H](O[C@@H]3O[C@H](CO)[C@@H](O)[C@H](O)[C@H]3NC(=O)CCCCCc3ccccc3)[C@@H]3NC(=O)[C@H](NC(=O)[C@@H]4NC(=O)[C@@H](NC2=O)c2cc(O)cc(c2)Oc2cc1ccc2O)c1ccc(O)c(c1)-c1c(O)cc(O)cc1[C@@H](C(=O)O)NC3=O .
stdout: >16 µg/mL
